Kindly supply the reported inhibition values for the records listed here.
Assay: endothelial E-selectin expression blockers – imaging, HUVEC, immunofluorescence, MLSMR starter and 10KST1 sets, primary screen (AID 487);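 for inhibition: signal is fraction of cell area covered by stained E-selectin grains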
Conditions: HUVEC TNFalpha-induced E-selectin immunofluorescence imaging, at 2 µM; stronger effect = higher value
All answers are understood in %, so give the number only.

For reference, reported inhibition for CCn1c(=O)c(C(=O)Nc2cccnc2)c(O)c2ccccc21 stands at -39.9

For reference, reported inhibition for CN1CCN(CC(=O)N2c3ccccc3C(C)(c3ccccc3)CC2(C)C)CC1 (stereo not given) stands at -183

For reference, reported inhibition for CCOC(=O)C(NC(=O)OC(C)C)(Nc1nccs1)C(F)(F)F (stereo not given) stands at 22.7

For reference, reported inhibition for CCOc1ccc(N(CC(=O)Nc2ccc(C)c(C)c2)S(=O)(=O)c2c(C)noc2C)cc1 stands at -29

For reference, reported inhibition for Cc1noc(C)c1CSc1nc2cc(S(=O)(=O)N3CCOCC3)ccc2o1 stands at -52

For reference, reported inhibition for CC1=C(C(=O)OC2CCCC2)C(c2ccc(C)o2)C2=C(CC(c3cccs3)CC2=O)N1 (stereo not given) stands at -10.5

For reference, reported inhibition for COC(=O)c1ccc(-c2nn(C)c(=O)c3ccccc23)cc1 stands at -13.3

For reference, reported inhibition for CCOc1cc(C(=O)N(C)c2ccccc2)cc(OCC)c1OCC stands at 5.8

For reference, reported inhibition for CCn1c(SCC(=O)c2ccc(OC)cc2)nnc1C(C)NC(=O)c1ccc(OC)cc1 (stereo not given) stands at -41.9

For reference, reported inhibition for CCN1CCN(C(c2ccc(F)cc2)c2nnnn2Cc2cccs2)CC1 (stereo not given) stands at -35.5

====

Assay: inhibitors of TNFa-induced NFkB p65 translocation, primary screen, imaging, HUVEC, MLSMR starter and 10KST1 sets (AID 438);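 note: compound added about 3h40 before a 20 min TNFalpha stimulation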
Conditions: HUVEC TNFa-induced p65 nuclear translocation; measured here: nuclei count (cytotoxicity indicator), at 2.08 µM
The label depends only on cell count: T if it is at least 400, F if it is smaller.

[in] Test whether the compound CC(C)[C@H](NC(=O)NC1CCCC1)C(=O)O records cell count of 400 or higher.
[out] F

[in] Test whether the compound CC1(C)Cc2ccccc2C(N)=C1C#N records cell count of 400 or higher.
[out] F

[in] Test whether the compound c1ccc(Cn2ncc3c2ncn2c(-c4ccncc4)nnc32)cc1 records cell count of 400 or higher.
[out] T

[in] Test whether the compound COCCNC(=O)c1snc2ccc(Cl)cc12 records cell count of 400 or higher.
[out] F

[in] Test whether the compound COc1ccc(NC(=O)N(C2CCCCC2)C2CCN(C(C)C)CC2)c(OC)c1 records cell count of 400 or higher.
[out] T

[in] Test whether the compound Cc1cccc2c1nc(-c1ccccc1)n1cnnc21 records cell count of 400 or higher.
[out] F

[in] Test whether the compound COC(=O)CSc1ncccc1-c1nc2ccccc2[nH]1 records cell count of 400 or higher.
[out] T

[in] Test whether the compound COc1ccc(N(C(=O)c2ccco2)C(C(=O)NC2CCCC2)c2ccc(N(C)C)cc2)cc1OC (configuration not stated) records cell count of 400 or higher.
[out] T

[in] Test whether the compound COCCN(CC(=O)NCc1ccccc1)C(=O)CCC(=O)Nc1ccccn1 records cell count of 400 or higher.
[out] T

[in] Test whether the compound CN(Cc1ccccc1)C(=O)c1ccc2c(c1)OCO2 records cell count of 400 or higher.
[out] T

[in] Test whether the compound CC(C)CCNC(=O)C1CCN(C(=O)N(C)C)CC1 records cell count of 400 or higher.
[out] T

[in] Test whether the compound CC(=O)NC(CCS(C)(=O)=O)C(=O)Nc1cccc(C)c1 (configuration not stated) records cell count of 400 or higher.
[out] T

====

Assay: endothelial E-selectin expression blockers – imaging, HUVEC, immunofluorescence, MLSMR starter and 10KST1 sets, primary screen (AID 487);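 for nuclei count: 100% = median nuclei count of all wells on the same plate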
Settings: HUVEC TNFalpha-induced E-selectin immunofluorescence imaging, at 2 µM; measured here: cell number, toxicity
Where a SMILES comes first, the peptide text is derived from it. [ ]: non-standard residue; d: D form. The star is where a group is joined. ξ: configuration not given here. Cbz = O=C(OCc1ccccc1)*; ξK = NCCCCC(N)C(=O)O
OUTCOME_MEASURE: nuclei count (%)
All answers are understood in %, so give the number only.

For reference, reported nuclei count for COc1ccc(N2CCN(Cc3cc(=O)oc4cc(C)c(Cl)c(C)c34)CC2)cc1 stands at 93.1

For reference, reported nuclei count for O=C(Nc1ccc(Cl)cc1C(=O)O)c1ccc2c(c1)C(=O)N(Cc1ccco1)C2=O stands at 119

For reference, reported nuclei count for Cc1nnc(SCc2ccccc2F)n1NCc1cccs1 stands at 113

For reference, reported nuclei count for COc1cc2c(C)nc(C)c(C#N)c2cc1OC stands at 124

For reference, reported nuclei count for O=C(Nc1ccc(Cl)c(C(F)(F)F)c1)N1CCCC(O)C1 (stereo unspecified) stands at 107

For reference, reported nuclei count for CC(C)COc1ccc(C2NC(=O)NC2=O)cc1 (stereo unspecified) stands at 91.5

For reference, reported nuclei count for CCCS(=O)(=O)N1CCC(C(=O)NCCN2CCCC2)CC1 stands at 70.1

For reference, reported nuclei count for Cc1oc(-c2ccccc2Cl)nc1CSCC(=O)N1CCCC1 stands at 102

For reference, reported nuclei count for COC(=O)C(CCCCNC(=O)OCc1ccccc1)NC(=O)CN (stereo unspecified) (H-Gly-[ξK](Cbz)-OMe) stands at 71.3

For reference, reported nuclei count for CCOc1cc(-c2nc3ccccn3c2NCC2CCCO2)ccc1O (stereo unspecified) stands at 83.1

For reference, reported nuclei count for Cc1cc(C(=O)NCc2cccnc2)no1 stands at 102

For reference, reported nuclei count for CCn1c(SCC(=O)c2ccc(C)cc2)nnc1-c1ccoc1C stands at 119

For reference, reported nuclei count for CCN(CC)C(=O)COC(=O)c1ccc(O)cc1 stands at 99.1

For reference, reported nuclei count for CCOC(=O)CSc1nnc([C@H](C)NC(=O)OC(C)(C)C)o1 stands at 118

For reference, reported nuclei count for Cc1ccnc2c(N3C(=O)C4C5C=CC(C5)C4(C)C3=O)cccc12 (stereo unspecified) stands at 111

For reference, reported nuclei count for COc1ccc(C2c3sc(=O)[nH]c3SC3C4CCC(C4)C23)cc1 (stereo unspecified) stands at 106

For reference, reported nuclei count for Cc1cc(N2CCC3(CC2)OCCO3)n2nc(C)c(-c3ccc(Cl)cc3)c2n1 stands at 94.7

For reference, reported nuclei count for COc1cccc(-c2nc(CS(=O)(=O)CC(=O)NCc3ccc(Cl)cc3)c(C)o2)c1 stands at 118

For reference, reported nuclei count for Cc1ccc(-n2c(Cn3cnc4ccccc43)nnc2SCC(=O)O)cc1 stands at 110

For reference, reported nuclei count for CCOC(=O)CSc1ncnc2c1cnn2-c1ccc(C)cc1 stands at 129

For reference, reported nuclei count for O=C(CN1c2cccc3cccc(c23)S1(=O)=O)N1CCOCC1 stands at 101

For reference, reported nuclei count for CC(=O)NC(=O)NC1CSCC1OC(C)=O (stereo unspecified) stands at 132

For reference, reported nuclei count for CCC1CCCCN1C(=O)C1CC(c2cc(Cl)c(OC)cc2OC)=NO1 (stereo unspecified) stands at 168

For reference, reported nuclei count for COc1cccc(C(=O)CN2CCC(NC(=O)NC3CCCCC3)CC2)c1 stands at 114

For reference, reported nuclei count for COc1cc2c(cc1OC)C(c1ccc(C)o1)CC(=O)N2 (stereo unspecified) stands at 122

For reference, reported nuclei count for CCOc1ccc(N2CC(C(=O)Nc3ccccc3OC)CC2=O)cc1 (stereo unspecified) stands at 126

For reference, reported nuclei count for CCOc1ccc(CN2C(=O)c3ccccc3C2C(=O)NCc2cccnc2)cc1 (stereo unspecified) stands at 94.3

For reference, reported nuclei count for CCS(=O)(=O)N1CCCC(C(=O)NCc2ccccc2Cl)C1 (stereo unspecified) stands at 112

For reference, reported nuclei count for COc1ccc(C(NC(=O)C(C)(C)C)NC(=O)C(C)(C)C)cc1 stands at 102

For reference, reported nuclei count for Cn1c(Cc2ccccc2)nnc1SCC(=O)N1CCOCC1 stands at 123

For reference, reported nuclei count for COc1ccc(-n2c(Cc3cccn3C)nnc2SCC(=O)Nc2cccc(C)c2C)cc1 stands at 110

For reference, reported nuclei count for COc1ccc(C2C(C#N)=C(N)Oc3cc4c(cc32)OCO4)cc1 (stereo unspecified) stands at 110

For reference, reported nuclei count for COc1ccc(Cl)cc1S(=O)(=O)n1cnc2ccccc21 stands at 104

For reference, reported nuclei count for COc1cc(C)c(-c2cc(C(=O)O)c(C)o2)cc1C(C)C stands at 130

For reference, reported nuclei count for Nc1nc(NCc2ccco2)nn1-c1ccccc1 stands at 93.7

For reference, reported nuclei count for COCCn1c(SCC(=O)N(C(C)C)C(C)C)nnc1-c1cc2ccccc2cc1O stands at 97.7

For reference, reported nuclei count for COc1ccc(C(=O)Nc2nncs2)c(OC)c1 stands at 111

For reference, reported nuclei count for CCN(CCCNC(=O)CCNC(=O)Cn1ccc2ccccc2c1=O)c1ccccc1 stands at 118

For reference, reported nuclei count for CN(C)c1ccc(C(=O)Nc2nnc(-c3ccc(Cl)cc3)o2)cc1 stands at 113

For reference, reported nuclei count for COc1cccc(-c2nnn(CC(=O)O)n2)c1 stands at 233

For reference, reported nuclei count for O=C(c1ccc(Br)o1)N(c1ccc(Br)cc1)C1C=CS(=O)(=O)C1 (stereo unspecified) stands at 121

For reference, reported nuclei count for O=C(NCCOC(=O)C1COc2ccccc2O1)C1COc2ccccc2O1 (stereo unspecified) stands at 128

For reference, reported nuclei count for CCN(CC)C(=O)C1CCCc2c1[nH]c1ccc(Cl)cc21 (stereo unspecified) stands at 104

For reference, reported nuclei count for COc1cccc(S(=O)(=O)Nc2ccc(C(=O)N3CCN(C(=O)c4ccco4)CC3)cc2)c1 stands at 124

For reference, reported nuclei count for CCOCCCNC(=O)Cn1ncc2c(=O)oc3ccccc3c21 stands at 104

For reference, reported nuclei count for COc1ccc2c(c1OC)C(=O)N(c1ccc3c(c1)CCC3)C2=O stands at 107
